Reported MIC is given for each of the following compounds.
System: S. epidermidis 471
PROCEDURE_TEXT: MIC, hospital MRSE strain
Type: cell-based, Staphylococcus epidermidis
TEST_CONDITIONS: hospital MRSE S. epidermidis 471
Respond numerically; units are µg/mL and should not be typed.

Reference set, count: 2
>  <SMILES>
O=[N+]([O-])c1cc([N+]2=C(Nc3ccc(F)c(Cl)c3)[S][Cu-2]23[S]C(Nc2ccc(F)c(Cl)c2)=[N+]3c2ccc(Cl)c([N+](=O)[O-])c2)ccc1Cl

>  <TARGET_DESC>
S. epidermidis 471

>  <MIC [µg/mL]>
8

$$$$
>  <SMILES>
O=[N+]([O-])c1cc([N+]2=C(Nc3ccc(Br)cc3)[S][Cu-2]23[S]C(Nc2ccc(Br)cc2)=[N+]3c2ccc(Cl)c([N+](=O)[O-])c2)ccc1Cl

>  <TARGET_DESC>
S. epidermidis 471

>  <MIC [µg/mL]>
8

$$$$

Please examine the following record next.
Please give measured MIC of the following entry: `O=[N+]([O-])c1cc([N+]2=C(Nc3ccccc3F)[S][Cu-2]23[S]C(Nc2ccccc2F)=[N+]3c2ccc(Cl)c([N+](=O)[O-])c2)ccc1Cl` 8

----------
Tested on: Peroxiredoxin-5, mitochondrial (PRDX5_HUMAN)
PROCEDURE_TEXT: LC–MS proteome analysis, PRDX5
Format: cell-based, Homo sapiens
TEST_CONDITIONS: SW480, 24 h, IC50 concentration, % of control
List of Protein Intensity, % (PRDX5) values.

>  <SMILES>
O=[N+]([O-])c1cc([N+]2=C(Nc3ccc(Br)cc3)[S][Cu-2]23[S]C(Nc2ccc(Br)cc2)=[N+]3c2ccc(Cl)c([N+](=O)[O-])c2)ccc1Cl

>  <RESULT>
84.8%

$$$$

Check the records and state Protein Intensity, % (PRDX5) for `O=[N+]([O-])c1cc([N+]2=C(Nc3ccccc3Br)[S][Cu-2]23[S]C(Nc2ccccc2Br)=[N+]3c2ccc(Cl)c([N+](=O)[O-])c2)ccc1Cl` 77.3%

Consider the compound `O=[N+]([O-])c1cc([N+]2=C(Nc3ccc(I)cc3)[S][Cu-2]23[S]C(Nc2ccc(I)cc2)=[N+]3c2ccc(Cl)c([N+](=O)[O-])c2)ccc1Cl` . State its measured Protein Intensity, % (PRDX5). 81.7%

Supply measured Protein Intensity, % (PRDX5) of `O=[N+]([O-])c1cc([N+]2=C(Nc3ccccc3F)[S][Cu-2]23[S]C(Nc2ccccc2F)=[N+]3c2ccc(Cl)c([N+](=O)[O-])c2)ccc1Cl` in your reply. 91.0%

----------
System: Superoxide dismutase [Cu-Zn] (SODC_HUMAN)
PROCEDURE_TEXT: LC–MS proteome analysis, SODC
Assay type: cell-based, Homo sapiens
TEST_CONDITIONS: SW620, 24 h, IC50 concentration, % of control
ENDPOINT_LABEL: Protein Intensity, % (SODC)
Quote the value and follow it with the unit of measurement.

Below are worked cases with known answers.
>  <SMILES>
O=[N+]([O-])c1cc([N+]2=C(Nc3ccc(Br)cc3)[S][Cu-2]23[S]C(Nc2ccc(Br)cc2)=[N+]3c2ccc(Cl)c([N+](=O)[O-])c2)ccc1Cl

>  <Protein Intensity, % (SODC)>
78.2%

$$$$
>  <SMILES>
O=[N+]([O-])c1cc([N+]2=C(Nc3ccc(I)cc3)[S][Cu-2]23[S]C(Nc2ccc(I)cc2)=[N+]3c2ccc(Cl)c([N+](=O)[O-])c2)ccc1Cl

>  <Protein Intensity, % (SODC)>
64.5%

$$$$
>  <SMILES>
O=[N+]([O-])c1cc([N+]2=C(Nc3ccccc3Br)[S][Cu-2]23[S]C(Nc2ccccc2Br)=[N+]3c2ccc(Cl)c([N+](=O)[O-])c2)ccc1Cl

>  <Protein Intensity, % (SODC)>
72.7%

$$$$

Determine reported Protein Intensity, % (SODC) for `O=[N+]([O-])c1cc([N+]2=C(Nc3ccccc3F)[S][Cu-2]23[S]C(Nc2ccccc2F)=[N+]3c2ccc(Cl)c([N+](=O)[O-])c2)ccc1Cl` ; test system: Superoxide dismutase [Cu-Zn] (SODC_HUMAN). 44.7%

----------
Attribute: Protein Intensity, % (GSTP1)
Tested on: Glutathione S-transferase P (GSTP1_HUMAN)
PROCEDURE_TEXT: LC–MS proteome analysis, GSTP1
Assay type: cell-based, Homo sapiens
TEST_CONDITIONS: SW480, 24 h, IC50 concentration, % of control
Form entry: value (%) — number only.

These solved cases illustrate the format of a correct answer.
>  <COMPOUND>
O=[N+]([O-])c1cc([N+]2=C(Nc3ccc(Br)cc3)[S][Cu-2]23[S]C(Nc2ccc(Br)cc2)=[N+]3c2ccc(Cl)c([N+](=O)[O-])c2)ccc1Cl [Compound 3]

>  <Protein Intensity, % (GSTP1), %>
75.9

$$$$
>  <COMPOUND>
O=[N+]([O-])c1cc([N+]2=C(Nc3ccc(I)cc3)[S][Cu-2]23[S]C(Nc2ccc(I)cc2)=[N+]3c2ccc(Cl)c([N+](=O)[O-])c2)ccc1Cl [Compound 8]

>  <Protein Intensity, % (GSTP1), %>
83.0

$$$$
>  <COMPOUND>
O=[N+]([O-])c1cc([N+]2=C(Nc3ccccc3Br)[S][Cu-2]23[S]C(Nc2ccccc2Br)=[N+]3c2ccc(Cl)c([N+](=O)[O-])c2)ccc1Cl [Compound 1]

>  <Protein Intensity, % (GSTP1), %>
84.8

$$$$

Now take the following compound into account.
Find the measured Protein Intensity, % (GSTP1) of O=[N+]([O-])c1cc([N+]2=C(Nc3ccccc3F)[S][Cu-2]23[S]C(Nc2ccccc2F)=[N+]3c2ccc(Cl)c([N+](=O)[O-])c2)ccc1Cl [Compound 7] with Glutathione S-transferase P (GSTP1_HUMAN) as test system. 80.9

----------
Catalogue of MIC values
System: E. coli NCTC 10538
PROCEDURE_TEXT: MIC, twofold serial microdilution
Type: cell-based, Escherichia coli
TEST_CONDITIONS: E. coli NCTC 10538, 18 h, 35 °C
Give a bare numeral; the unit µg/mL is implied.

Example entries begin here.
>  <SMILES>
O=[N+]([O-])c1cc([N+]2=C(Nc3ccc(I)cc3)[S][Cu-2]23[S]C(Nc2ccc(I)cc2)=[N+]3c2ccc(Cl)c([N+](=O)[O-])c2)ccc1Cl

>  <TARGET_DESC>
E. coli NCTC 10538

>  <ENDPOINT_LABEL>
MIC

>  <VALUE_UNIT>
µg/mL

>  <NUMERIC_RESULT>
128

$$$$
>  <SMILES>
O=[N+]([O-])c1cc(NC2=[N+](c3ccc(Cl)c([N+](=O)[O-])c3)[Cu-2]3([S]2)[S]C(Nc2ccc(Cl)c([N+](=O)[O-])c2)=[N+]3c2ccc(Cl)c([N+](=O)[O-])c2)ccc1Cl

>  <TARGET_DESC>
E. coli NCTC 10538

>  <ENDPOINT_LABEL>
MIC

>  <VALUE_UNIT>
µg/mL

>  <NUMERIC_RESULT>
128

$$$$
>  <SMILES>
O=[N+]([O-])c1cc([N+]2=C(Nc3cccc(Br)c3)[S][Cu-2]23[S]C(Nc2cccc(Br)c2)=[N+]3c2ccc(Cl)c([N+](=O)[O-])c2)ccc1Cl

>  <TARGET_DESC>
E. coli NCTC 10538

>  <ENDPOINT_LABEL>
MIC

>  <VALUE_UNIT>
µg/mL

>  <NUMERIC_RESULT>
128

$$$$

Given `O=[N+]([O-])c1cc([N+]2=C(Nc3ccc(Cl)c(Cl)c3)[S][Cu-2]23[S]C(Nc2ccc(Cl)c(Cl)c2)=[N+]3c2ccc(Cl)c([N+](=O)[O-])c2)ccc1Cl` , respond with its MIC. 128

Tell me measured MIC for `O=[N+]([O-])c1cc([N+]2=C(Nc3ccc(Br)cc3)[S][Cu-2]23[S]C(Nc2ccc(Br)cc2)=[N+]3c2ccc(Cl)c([N+](=O)[O-])c2)ccc1Cl` please. 128

----------
Test system: S. aureus 498
PROCEDURE_TEXT: MIC, hospital MRSA strain
Assay type: cell-based, Staphylococcus aureus
TEST_CONDITIONS: hospital MRSA S. aureus 498
ENDPOINT_LABEL: MIC (µg/mL)
Form entry: value (µg/mL) — number only.

>  <SMILES>
O=[N+]([O-])c1cc(NC2=[N+](c3ccc(Cl)c([N+](=O)[O-])c3)[Cu-2]3([S]2)[S]C(Nc2ccc(Cl)c([N+](=O)[O-])c2)=[N+]3c2ccc(Cl)c([N+](=O)[O-])c2)ccc1Cl

>  <MIC (µg/mL)>
32

$$$$

Output measured MIC for this item: `O=[N+]([O-])c1cc([N+]2=C(Nc3ccc(F)c(Cl)c3)[S][Cu-2]23[S]C(Nc2ccc(F)c(Cl)c2)=[N+]3c2ccc(Cl)c([N+](=O)[O-])c2)ccc1Cl` 4

# return recorded MIC for entry `O=[N+]([O-])c1cc([N+]2=C(Nc3ccccc3Br)[S][Cu-2]23[S]C(Nc2ccccc2Br)=[N+]3c2ccc(Cl)c([N+](=O)[O-])c2)ccc1Cl` 8

The values you see were collected from paper PMC8584173.
